Assay: DPPH radical scavenging
Type: biochemical
Settings: covalent retinoyl conjugate; 20 µM DPPH in methanol, 30 min, 25 °C; mean ± standard error; read-out: DPPH radical scavenging activity (IC50), conjugate with retinoic acid
VALUE TYPE: IC50 (µM)

Sample records with IC50:
COMPOUND	IC50 (µM)
COc1cc(C2Oc3cc([C@H]4Oc5cc(OC(=O)/C=C(C)/C=C/C=C(C)/C=C/C6=C(C)CCCC6(C)C)cc(O)c5C(=O)[C@@H]4O)ccc3OC2CO)ccc1O (some centres unmarked) [6ab, Silybin-7-O-retinoate]	666
COc1cc([C@@H]2Oc3cc([C@H]4Oc5cc(OC(=O)/C=C(C)/C=C/C=C(C)/C=C/C6=C(C)CCCC6(C)C)cc(O)c5C(=O)[C@@H]4O)ccc3O[C@H]2CO)ccc1O [6b, Silybin B-7-O-retinoate]	540

I: COc1cc([C@H]2Oc3ccc([C@H]4Oc5cc(OC(=O)/C=C(C)/C=C/C=C(C)/C=C/C6=C(C)CCCC6(C)C)cc(O)c5C(=O)[C@@H]4O)cc3O[C@@H]2CO)ccc1O [8a, Isosilybin A-7-O-retinoate]
II: COc1cc([C@H]2Oc3cc([C@H]4Oc5cc(OC(=O)/C=C(C)/C=C/C=C(C)/C=C/C6=C(C)CCCC6(C)C)cc(O)c5C(=O)[C@@H]4O)ccc3O[C@@H]2CO)ccc1O [6a, Silybin A-7-O-retinoate]
III: COc1cc(C2Oc3cc(-c4oc5cc(O)cc(O)c5c(=O)c4OC(=O)/C=C(C)/C=C/C=C(C)/C=C/C4=C(C)CCCC4(C)C)ccc3OC2CO)ccc1O (centres unmarked) [compound 7, 2,3-Dehydrosilybin AB-3-O-retinoate]
Ask: Arrange the 3 entries by IC50 so the values rise. Return the labels ranked in the requested order, please.
Result: II, III, I

###

Assay: DPPH radical scavenging
Type: biochemical
Conditions: parent compound alone; 20 µM DPPH in methanol, 30 min, 25 °C; mean ± standard error; read-out: DPPH radical scavenging activity (IC50), parent compound
VALUE TYPE: IC50 (µM)

In [3]: df
Out[3]:
                                   molecule  value_type  data_value
0  COc1cc(C2Oc3cc([C@H]4Oc5cc(O)cc(O)c5C(=O)[C@@H]4O)ccc3OC2CO)ccc1O (some centres unmarked)        IC50         472

a: COc1cc([C@H]2Oc3ccc([C@H]4Oc5cc(O)cc(O)c5C(=O)[C@@H]4O)cc3O[C@@H]2CO)ccc1O
b: COc1cc(C2Oc3cc(-c4oc5cc(O)cc(O)c5c(=O)c4O)ccc3OC2CO)ccc1O (centres unmarked) [compound 4, 2,3-dehydrosilybin]
Ask: Task for the reader: decide whether a or b has the larger IC50. Write down the label of the entry you select.
Result: a
(a: 783 µM, b: 19.2 µM)
